Exercise: state measured inhibition at 10 µM for each of the compounds provided.
# MEASUREMENT TARGET: B1R receptor of the rat (rB1R) (Rattus norvegicus)
# Construct: host or cells: CHO K1 cells
# Sequence (P97583 whole entry): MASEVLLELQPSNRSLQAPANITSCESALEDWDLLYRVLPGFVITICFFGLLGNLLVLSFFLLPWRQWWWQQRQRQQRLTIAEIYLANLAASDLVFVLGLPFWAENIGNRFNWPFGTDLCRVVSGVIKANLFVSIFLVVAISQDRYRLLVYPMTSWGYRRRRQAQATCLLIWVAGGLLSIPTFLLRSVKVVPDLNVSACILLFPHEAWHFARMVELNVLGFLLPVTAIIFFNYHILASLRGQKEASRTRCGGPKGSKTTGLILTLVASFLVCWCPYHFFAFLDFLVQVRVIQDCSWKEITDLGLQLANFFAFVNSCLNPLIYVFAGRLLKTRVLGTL
# TEST DETAILS: FLIPR Ca2+ assay on rB1R-transfected CHO K1 cells, antagonistic action
# Type: cell-based
# MEASUREMENT CONDITIONS: CHO-K1, 10 μM test substance; agonist Des-Arg9-bradykinin 100 nM; % of maximum achievable inhibition; read-out: rB1R [10 μM] % inhibition
Give bare numbers, in %.

COMPOUND	RESULT UNIT	VALUE
COc1cc(C)c(S(=O)(=O)N2CCCCC2COCC(=O)NC2CCC(Cc3ccccc3)(N3CCCC3)CC2)c(C)c1 (centres unmarked)	%	105

For every item in the list below, what is its measured inhibition at 10 µM?
1. Cc1cc(S(=O)(=O)N2CCCCC2CCC(=O)N(C)CCCC2CCC(Cc3ccccc3)(N3CCCC3)CC2)c(C)cc1Cl (centres unmarked)
2. CN1CCN(C2(Cc3ccccc3)CCC(CN(C)C(=O)COCC3CCCCN3S(=O)(=O)c3c(Cl)cc(Cl)cc3Cl)CC2)CC1 (centres unmarked)

Result:
58
94

For each of the compounds below, state inhibition at 10 µM.
1. COc1cc(C)c(S(=O)(=O)N2CCC(OCC(=O)N3CCC(c4cccc(F)c4)(N4CCN(C)CC4)CC3)C2)c(C)c1 (centres unmarked)
2. O=C(COCC1CCCN1S(=O)(=O)c1c(Cl)cc(Cl)cc1Cl)NC1CCC(c2ccccc2)(N2CCCC2)CC1 (centres unmarked)
3. CN(CCC1CCC(c2ccccc2)(N2CCCC2)CC1)C(=O)CC1CCCCN1S(=O)(=O)c1cccc(C(F)(F)F)c1 (centres unmarked)
4. Cc1cc(S(=O)(=O)N2CCCCC2CCC(=O)N2CCC(c3ccc(F)cc3)(N3CCN(C)CC3)CC2)c(C)cc1Cl (centres unmarked)
5. CN1CCN(C2(c3ccccc3)CCN(C(=O)CC3CCCCN3S(=O)(=O)c3cccc(C(F)(F)F)c3)CC2)CC1 (centres unmarked)
6. COc1cc(C)c(S(=O)(=O)N2CCCCC2COCC(=O)N(C)CCCC2CCC(c3ccccc3)(N3CCC3)CC2)c(C)c1 (centres unmarked)
7. COc1cc(C)c(S(=O)(=O)N(CCOCC(=O)N2CCC(c3cccc(F)c3)(N3CCN(C)CC3)CC2)c2ccccc2)c(C)c1
8. COc1cc(C)c(S(=O)(=O)N(C)CCOCC(=O)NCC2CCC(c3ccccc3)(N3CCOCC3)CC2)c(C)c1 (centres unmarked)

Result:
98
108
79
28
100
100
61
65

// for each compound in input: emit inhibition at 10 µM
1. CN(CC1CCC(c2ccccc2)(N2CCCC2)CC1)C(=O)CC1CCCCN1S(=O)(=O)c1cccc(C(F)(F)F)c1 (centres unmarked)
2. CN1CCN(C2(c3cccc(F)c3)CCN(C(=O)CC(NS(=O)(=O)c3ccc4ccccc4c3)c3ccccc3)CC2)CC1 (centres unmarked)
3. CN(CCC1CCC(c2ccccc2)(N(C)C)CC1)C(=O)CC1CCCCN1S(=O)(=O)c1cccc(C(F)(F)F)c1 (centres unmarked)

Result:
[101, 67, 56]

====

# MEASUREMENT TARGET: human B1R receptor (hB1R) (Homo sapiens, UniProt P46663)
# Construct: host or cells: CHO K1 cells
# Sequence (P46663 whole entry): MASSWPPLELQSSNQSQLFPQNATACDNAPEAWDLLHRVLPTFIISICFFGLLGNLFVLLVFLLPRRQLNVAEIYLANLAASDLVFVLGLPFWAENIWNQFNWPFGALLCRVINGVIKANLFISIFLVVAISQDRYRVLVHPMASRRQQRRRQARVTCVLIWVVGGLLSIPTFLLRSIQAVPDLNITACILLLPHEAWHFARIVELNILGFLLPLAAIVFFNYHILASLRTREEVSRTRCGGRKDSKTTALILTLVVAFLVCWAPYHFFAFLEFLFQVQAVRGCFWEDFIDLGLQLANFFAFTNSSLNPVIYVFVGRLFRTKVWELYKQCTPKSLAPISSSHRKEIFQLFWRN
# TEST DETAILS: FLIPR Ca2+ assay on hB1R-transfected CHO K1 cells, antagonistic action
# Type: cell-based
# MEASUREMENT CONDITIONS: CHO-K1, 10 μM test substance; agonist Lys-Des-Arg9-bradykinin 0.5 nM; % of maximum achievable inhibition; read-out: hB1R [10 μM] % inhibition
Answer each item with its documented inhibition at 10 µM.
Numbers only, in %.

Worked examples, 5 compounds total:
COMPOUND	inhibition at 10 µM [%]
CN(CCC1CCC(CCc2ccccc2)(N(C)C)CC1)C(=O)COCC1CCc2ccccc2N1S(=O)(=O)c1ccc(Cl)c(Cl)c1 (stereo not drawn) [Compound 101]	99
COc1cc(C)c(S(=O)(=O)N2CCC(OCC(=O)NC3CCC(Cc4ccccc4)(N4CCCCC4)CC3)C2)c(C)c1 (stereo not drawn) [Compound 18]	68
COc1cc(C)c(S(=O)(=O)N(C)CCOCC(=O)N(C)CCC2CCC(c3ccccc3)(N(C)C)CC2)c(C)c1 (stereo not drawn) [Compound 72]	103
COc1cc(C)c(S(=O)(=O)N2CCCCC2COCC(=O)NC2CCC(Cc3ccccc3)(N3CCCC3)CC2)c(C)c1 (stereo not drawn) [Compound 149]	103
O=C(COCC1CCCCN1S(=O)(=O)c1c(Cl)cc(Cl)cc1Cl)NC1CCC(Cc2ccccc2)(N2CCCC2)CC1 (stereo not drawn) [Compound 163]	84

Now look at this one.
Ask: Dear colleague, I am looking for the recorded inhibition at 10 µM of the following compound: COc1cc(C)c(S(=O)(=O)N(C)CCOCC(=O)N(C)CCC2CCC(c3cccnc3)(N(C)C)CC2)c(C)c1 (stereo not drawn) [Compound 207]
Result: 100

====

So I've got a bunch of compounds here, and I need their inhibition at 10 µM values.
# MEASUREMENT TARGET: human B1R receptor (hB1R) (Homo sapiens)
# Construct: host or cells: CHO K1 cells
# TEST DETAILS: FLIPR Ca2+ assay on hB1R-transfected CHO K1 cells, antagonistic action
# Assay type: cell-based
# MEASUREMENT CONDITIONS: CHO-K1, 10 μM test substance; agonist Lys-Des-Arg9-bradykinin 0.5 nM; % of maximum achievable inhibition; read-out: hB1R [10 μM] % inhibition
Give bare numbers, in %.

Solved entries (count: 2):
COMPOUND	inhibition at 10 µM, %
O=C(COCC1CCCN(S(=O)(=O)c2c(Cl)cc(Cl)cc2Cl)C1)NC1CCC(c2ccccc2)(N2CCCC2)CC1 (stereo not drawn)	99
CN1CCN(C2(Cc3ccccc3)CCC(CN(C)C(=O)COCC3CCCCN3S(=O)(=O)c3c(Cl)cc(Cl)cc3Cl)CC2)CC1 (stereo not drawn)	102

Now for another entry.
Ask: Short answer please: inhibition at 10 µM, human B1R receptor (hB1R) (Homo sapiens), entry CN(C)C1(c2cccc(F)c2)CCC(NC(=O)COCCN(C)S(=O)(=O)c2ccc(Cl)cc2Cl)CC1 (stereo not drawn)
Result: 29

====

Please go through the items and note down their inhibition at 10 µM.
# MEASUREMENT TARGET: human B1R receptor (hB1R) (Homo sapiens)
# Construct: host or cells: CHO K1 cells
# TEST DETAILS: FLIPR Ca2+ assay on hB1R-transfected CHO K1 cells, antagonistic action
# Type: cell-based
# MEASUREMENT CONDITIONS: CHO-K1, 10 μM test substance; agonist Lys-Des-Arg9-bradykinin 0.5 nM; % of maximum achievable inhibition; read-out: hB1R [10 μM] % inhibition
Give bare numbers, in %.

Please review the following examples before continuing.
MOLECULE	VALUE
CN(CCC1CCC(c2ccccc2)(N2CCCC2)CC1)C(=O)CC(NS(=O)(=O)c1ccc2ccccc2c1)c1ccccc1 (stereo not drawn)	103
Cc1ccccc1CC1(N(C)C)CCC(NC(=O)COCCN(C)S(=O)(=O)c2ccc(Cl)cc2Cl)CC1 (stereo not drawn)	63
COc1cc(C)c(S(=O)(=O)N(C)CCOCC(=O)N(C)CC2CCC(c3ccccc3)(N3CCCC3)CC2)c(C)c1 (stereo not drawn)	102
CN1CCN(C2(c3ccccc3)CCN(C(=O)CC3CCCCN3S(=O)(=O)c3cccc(C(F)(F)F)c3)CC2)CC1 (stereo not drawn)	84
COc1cc(C)c(S(=O)(=O)N2CCCCC2COCC(=O)N(C)CC2CCC(c3ccccc3)(N3CCCC3)CC2)c(C)c1 (stereo not drawn)	102
COc1cc(C)c(S(=O)(=O)N2CCC(OCC(=O)NC3CCC(Cc4ccccc4)(N4CCCC4)CC3)C2)c(C)c1 (stereo not drawn)	92

I have 6 molecules here; please give me inhibition at 10 µM for each one.
1. COc1cc(C)c(S(=O)(=O)N(C)CCOCC(=O)NC2CCC(CCc3ccccc3)(N(C)C)CC2)c(C)c1C (stereo not drawn)
2. COc1cc(C)c(S(=O)(=O)N2c3ccccc3OCC2COCC(=O)N2CCC(c3cccc(F)c3)(N3CCN(C)CC3)CC2)c(C)c1 (stereo not drawn)
3. CN1CCN(C2(Cc3ccccc3)CCC(CN(C)C(=O)COC3CCCN(S(=O)(=O)c4c(Cl)cc(Cl)cc4Cl)C3)CC2)CC1 (stereo not drawn)
4. COc1cc(C)c(S(=O)(=O)N2CCCCC2COCC(=O)N2CCC(c3ccccc3)(N3CCN(c4ccncc4)CC3)CC2)c(C)c1 (stereo not drawn)
5. Cc1cc(S(=O)(=O)N2CCCCC2CCC(=O)N2CCC(c3ccc(F)cc3)(N3CCN(C)CC3)CC2)c(C)cc1Cl (stereo not drawn)
6. COc1cc(C)c(S(=O)(=O)N(C)CCOCC(=O)N(C)CCC2CCC(CCc3ccccc3)(N(C)C)CC2)c(C)c1 (stereo not drawn)

Result:
[97, 99, 97, 103, 102, 104]
